Origin of the recorded values: ChEMBL document CHEMBL3217725

Organism: Homo sapiens
Experiment: Inhibition of human alpha-chymotrypsin using Suc-Leu-Tyr-AMC as substrate assessed as residual activity after 10 mins by Dixon plot analysis
The source made the active and inactive calls. The rule behind the calls is not given here. Where a SMILES comes first, the peptide text is derived from it. [ ]: non-standard residue; d: D form. The star is where a group is joined. Ac6c = NC1(C(=O)O)CCCCC1; Cbz = O=C(OCc1ccccc1)*
METRIC: Activity

Example cases with answers are listed next.
# MOLECULE, MEASURED_RESULT
data = [
    ("N#CCNC(=O)C1(NC(=O)[C@H]2C[C@@H]2c2ccccc2)CCCCC1 (racemic)", "inactive"),
    ("O=CCNC(=O)C1(NC(=O)OCc2ccccc2)CCCCC1 (Cbz-[Ac6c]-Gly-aldehyde)", "inactive"),
    ("COc1ccc(CCC(=O)NC2(C(=O)NCC#N)CCCCC2)cc1", "inactive"),
    ("N#CCNC(=O)C1(NC(=O)CCc2cccs2)CCCCC1", "inactive"),
    ("N#C[C@@H]1CCCN1C(=O)C1(NC(=O)OCc2ccccc2)CCCCC1", "inactive"),
    ("COc1ccc(CCC(=O)NC2(C(=O)NCC#N)CCCCC2)cc1OC", "inactive"),
]

INPUT: Quick one: Activity for `CC(C)(NC(=O)OCc1ccccc1)C(=O)NCC#N` ?
OUTPUT: inactive

INPUT: Quick one: Activity for `N#CCNC(=O)C1(NC(=O)CCc2ccco2)CCCCC1` ?
OUTPUT: inactive

INPUT: Quick one: Activity for `N#CCNC(=O)C1(NC(=O)C2CCCC2)CCCCC1` ?
OUTPUT: inactive

INPUT: Quick one: Activity for `N#CCNC(=O)C1(NC(=O)CCc2cccnc2)CCCCC1` ?
OUTPUT: inactive

---

Below are compounds with their pKi as measured on Procathepsin L (Homo sapiens, UniProt P07711).
Sequence (P07711 whole entry): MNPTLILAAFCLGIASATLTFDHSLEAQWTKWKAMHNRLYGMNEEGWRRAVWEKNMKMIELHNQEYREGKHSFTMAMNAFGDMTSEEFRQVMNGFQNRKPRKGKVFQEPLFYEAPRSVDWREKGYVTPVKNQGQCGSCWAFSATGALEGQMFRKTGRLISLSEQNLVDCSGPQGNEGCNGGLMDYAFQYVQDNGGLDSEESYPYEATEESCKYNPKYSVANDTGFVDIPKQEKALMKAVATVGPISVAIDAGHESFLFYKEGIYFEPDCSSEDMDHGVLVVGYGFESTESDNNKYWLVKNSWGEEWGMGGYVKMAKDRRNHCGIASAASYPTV
pKi: −log10 of the molar value. Where a SMILES comes first, the peptide text is derived from it. [ ]: non-standard residue; d: D form. The star is where a group is joined. Ac6c = NC1(C(=O)O)CCCCC1; Cbz = O=C(OCc1ccccc1)*
METRIC: pKi

# COMPOUND, MEASURED_ON, pKi
measured = [
    ("N#CCNC(=O)C1(NC(=O)CCC2CCCC2)CCCCC1", "Procathepsin L (Homo sapiens, UniProt P07711)", 4.53),
    ("COc1ccccc1CCC(=O)NC1(C(=O)NCC#N)CCCCC1", "Procathepsin L (Homo sapiens, UniProt P07711)", 4.60),
]

[I] O=CCNC(=O)C1(NC(=O)OCc2ccccc2)CCCCC1 (Cbz-[Ac6c]-Gly-aldehyde)
[II] N#CCNC(=O)C1(NC(=O)[C@H]2C[C@@H]2c2ccccc2)CCCCC1 (racemic)
INPUT: # compare pKi for I vs II ; return the one with the smaller value To answer, give the label that identifies your chosen option.
OUTPUT: II

---

Target: Cathepsin B (Homo sapiens)
Test: Inhibition of human cathepsin B at 20 uM relative to control
Where a SMILES comes first, the peptide text is derived from it. [ ]: non-standard residue; d: D form. The star is where a group is joined. Ac6c = NC1(C(=O)O)CCCCC1; Cbz = O=C(OCc1ccccc1)*
inhibition values, listed per item

Example cases with answers are listed next.
# COMPOUND, MEASURED_ON, inhibition
data = [
    ("N#CCNC(=O)C1(NC(=O)CCc2cccnc2)CCCCC1", "Cathepsin B (Homo sapiens)", "< 35%"),
    ("N#CCNC(=O)C1(NC(=O)CCc2ccco2)CCCCC1", "Cathepsin B (Homo sapiens)", "< 35%"),
    ("COc1ccccc1CCC(=O)NC1(C(=O)NCC#N)CCCCC1", "Cathepsin B (Homo sapiens)", "< 35%"),
    ("N#CCNC(=O)C1(NC(=O)CCC2CCCC2)CCCCC1", "Cathepsin B (Homo sapiens)", "< 35%"),
    ("N#CCNC(=O)C1(NC(=O)CCc2cccs2)CCCCC1", "Cathepsin B (Homo sapiens)", "< 35%"),
]

INPUT: Provide the documented inhibition with Cathepsin B (Homo sapiens) as the system for O=CCNC(=O)C1(NC(=O)OCc2ccccc2)CCCCC1 (Cbz-[Ac6c]-Gly-aldehyde)
OUTPUT: < 35%

INPUT: Provide the documented inhibition with Cathepsin B (Homo sapiens) as the system for `N#C[C@@H]1CCCN1C(=O)C1(NC(=O)OCc2ccccc2)CCCCC1`
OUTPUT: < 35%

INPUT: Provide the documented inhibition with Cathepsin B (Homo sapiens) as the system for `COc1ccc(CCC(=O)NC2(C(=O)NCC#N)CCCCC2)cc1`
OUTPUT: < 35%

INPUT: Provide the documented inhibition with Cathepsin B (Homo sapiens) as the system for N#CCNC(=O)C1(NC(=O)[C@H]2C[C@@H]2c2ccccc2)CCCCC1 (racemic)
OUTPUT: < 35%

INPUT: Provide the documented inhibition with Cathepsin B (Homo sapiens) as the system for `CC(C)(NC(=O)OCc1ccccc1)C(=O)NCC#N`
OUTPUT: < 35%

---

pKi: −log10 of the molar value. Where a SMILES comes first, the peptide text is derived from it. [ ]: non-standard residue; d: D form. The star is where a group is joined. Ac6c = NC1(C(=O)O)CCCCC1; Cbz = O=C(OCc1ccccc1)*
Below are molecules with their pKi as measured on Cathepsin B (Homo sapiens).
METRIC: pKi

[P] N#CCNC(=O)C1(NC(=O)CCC2CCCC2)CCCCC1
[Q] N#CCNC(=O)C1(NC(=O)[C@H]2C[C@@H]2c2ccccc2)CCCCC1 (racemic)
[R] O=CCNC(=O)C1(NC(=O)OCc2ccccc2)CCCCC1 (Cbz-[Ac6c]-Gly-aldehyde)
INPUT: In a descending ranking, list each entry from above by its pKi, from the largest value down to the smallest. Write out the labels following the order that was asked for.
OUTPUT: R, Q, P

---

Species on record: Homo sapiens
Test: Inhibition of human alpha-chymotrypsin using Suc-Leu-Tyr-AMC as substrate assessed as residual activity after 10 mins by Dixon plot analysis
Active and inactive are the calls of the source. The rule behind the calls is not given here.

# SMILES_REPRESENTATION, Activity
measured = [
    ("N#CCNC(=O)C1(NC(=O)OCc2ccccc2)CCCCC1", "inactive"),
    ("N#CCNC(=O)C1(NC(=O)CCC2CCCC2)CCCCC1", "inactive"),
    ("COc1ccccc1CCC(=O)NC1(C(=O)NCC#N)CCCCC1", "inactive"),
]

---

Molecular target: Cathepsin B (Homo sapiens, UniProt P07858)
Assay: Inhibition of human cathepsin B at 20 uM relative to control
inhibition values, listed per item

Example cases with answers are listed next.
# SMILES_REPRESENTATION, MEASURED_ON, inhibition
records = [
    ("N#CCNC(=O)C1(NC(=O)OCc2ccccc2)CCCCC1", "Cathepsin B (Homo sapiens, UniProt P07858)", "< 35%"),
    ("N#CCNC(=O)C1(NC(=O)C2CCCC2)CCCCC1", "Cathepsin B (Homo sapiens, UniProt P07858)", "< 35%"),
]

INPUT: Quick one: inhibition for `COc1ccc(CCC(=O)NC2(C(=O)NCC#N)CCCCC2)cc1OC` ?
OUTPUT: < 35%
